# STUDY_TARGET: CD3ε homodimer protein (human, UniProt P07766 23-126, limits assumed)
# Sequence (P07766 23-126 limits assumed): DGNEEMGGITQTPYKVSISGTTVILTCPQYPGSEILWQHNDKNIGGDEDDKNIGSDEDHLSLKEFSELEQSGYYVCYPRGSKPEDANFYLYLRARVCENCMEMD
# ASSAY: SPR, immobilized CD3ε homodimer;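 also: biacore T200 surface plasmon resonance at 25 °C, antibody variants flowed as analytes over amine-coupled CD3ε homodimer on a CM4 chip, variant binding amount divided by that of GLS3000 antibody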
Quick reference: ratio of amounts bound (vs GLS3000) of the listed items.
The answer should be written as a number, with no unit following it.

Known results for binders:
BINDER	ratio of amounts bound (vs GLS3000)
GLS3000 V94T (antibody, name in Kabat numbering, V domains shown, one-arm format as m2) VH: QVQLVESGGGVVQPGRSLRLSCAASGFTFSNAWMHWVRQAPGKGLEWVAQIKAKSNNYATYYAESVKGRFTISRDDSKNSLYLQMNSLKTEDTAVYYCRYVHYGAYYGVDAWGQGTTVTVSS VL: DIVMTQSPLSLPVTPGEPASISCRSSQSLVHSNRNTYLHWYQQKPGQAPRLLIYKVSNRFSGVPDRFSGSGSGTDFTLKISRVEAEDVGVYYCGQGTQTPYTFGQGTKLEIK	0.93
GLS3000 H34L (antibody, name in Kabat numbering, V domains shown, one-arm format as m2) VH: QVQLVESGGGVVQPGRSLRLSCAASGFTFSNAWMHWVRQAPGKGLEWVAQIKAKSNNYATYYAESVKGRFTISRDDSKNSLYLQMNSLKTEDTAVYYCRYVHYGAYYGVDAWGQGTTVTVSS VL: DIVMTQSPLSLPVTPGEPASISCRSSQSLVHSNRNTYLLWYQQKPGQAPRLLIYKVSNRFSGVPDRFSGSGSGTDFTLKISRVEAEDVGVYYCGQGTQVPYTFGQGTKLEIK	0.59
GLS3000 N30W (antibody, name in Kabat numbering, V domains shown, one-arm format as m2) VH: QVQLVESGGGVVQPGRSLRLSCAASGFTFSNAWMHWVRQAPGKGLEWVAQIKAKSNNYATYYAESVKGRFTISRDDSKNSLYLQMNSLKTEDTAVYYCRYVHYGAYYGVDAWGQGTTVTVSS VL: DIVMTQSPLSLPVTPGEPASISCRSSQSLVHSNRWTYLHWYQQKPGQAPRLLIYKVSNRFSGVPDRFSGSGSGTDFTLKISRVEAEDVGVYYCGQGTQVPYTFGQGTKLEIK	0.99

Could you now consider this next binder?
I have this binder here, GLS3000 V94N (antibody, name in Kabat numbering, V domains shown, one-arm format as m2) VH: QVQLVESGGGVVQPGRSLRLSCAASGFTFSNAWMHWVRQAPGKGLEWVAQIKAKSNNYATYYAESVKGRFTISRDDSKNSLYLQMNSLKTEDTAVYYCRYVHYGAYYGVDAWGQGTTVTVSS VL: DIVMTQSPLSLPVTPGEPASISCRSSQSLVHSNRNTYLHWYQQKPGQAPRLLIYKVSNRFSGVPDRFSGSGSGTDFTLKISRVEAEDVGVYYCGQGTQNPYTFGQGTKLEIK , and I need its recorded ratio of amounts bound (vs GLS3000).
1.05
